Please respond with reported self-splicing fitness (ln) for every item in the list.
Assay: self-splicing fitness, log relative to wild type (ln ratio); higher = more splicing; Tetrahymena group I intron in knt gene, E. coli kanamycin selection, DiMSum; sequences stand for … in CUCUCU…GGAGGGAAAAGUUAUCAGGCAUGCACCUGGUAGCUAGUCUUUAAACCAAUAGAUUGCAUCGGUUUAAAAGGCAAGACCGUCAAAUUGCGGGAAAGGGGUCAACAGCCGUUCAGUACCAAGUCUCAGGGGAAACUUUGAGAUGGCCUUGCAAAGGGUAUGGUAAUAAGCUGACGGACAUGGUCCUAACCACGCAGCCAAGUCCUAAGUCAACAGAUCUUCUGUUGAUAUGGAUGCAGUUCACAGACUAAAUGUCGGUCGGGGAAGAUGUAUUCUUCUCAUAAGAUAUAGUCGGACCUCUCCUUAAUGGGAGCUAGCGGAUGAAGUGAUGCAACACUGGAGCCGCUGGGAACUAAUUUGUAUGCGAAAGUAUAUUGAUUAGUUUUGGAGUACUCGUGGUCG;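 also: selection with 25 µg/mL kanamycin versus none on LB agar overnight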
Conditions: 37 °C
Numbers only.

Below is a list of sequences. For each, state its recorded self-splicing fitness (ln).
1. GUGCAGCAAUAUUACGAAUC
2. UCCAAGCAAUAUUACGUUGU
3. CGUGAGCAAUAUUACGCCUA
4. CGUAAGCAAUAUUACGGAUA
5. UGUCAGCAAUAUUACGGCUA
6. CUCGAGCAAUAUUACGCAAG
7. CGGCAGCAAUAUUACGCCAU

[-0.491, -1.7, -0.88, -2.1, 0.327, -1.35, -1.6]

* * *

Experiment: self-splicing fitness, log relative to wild type (ln ratio); higher = more splicing; Tetrahymena group I intron in knt gene, E. coli kanamycin selection, DiMSum; sequences stand for … in CUCUCU…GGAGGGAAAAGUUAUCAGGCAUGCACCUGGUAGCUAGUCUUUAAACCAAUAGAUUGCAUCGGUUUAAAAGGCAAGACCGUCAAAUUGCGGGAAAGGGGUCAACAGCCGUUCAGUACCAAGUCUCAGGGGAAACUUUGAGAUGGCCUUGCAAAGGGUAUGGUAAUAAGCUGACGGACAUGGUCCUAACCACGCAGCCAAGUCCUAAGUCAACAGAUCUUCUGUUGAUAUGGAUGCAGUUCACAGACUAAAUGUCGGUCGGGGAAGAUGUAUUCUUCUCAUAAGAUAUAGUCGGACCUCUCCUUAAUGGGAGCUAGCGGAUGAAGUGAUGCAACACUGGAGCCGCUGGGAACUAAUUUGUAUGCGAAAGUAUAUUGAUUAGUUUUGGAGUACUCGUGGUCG
Details: 37 °C
Please respond with reported self-splicing fitness (ln) for every item in the list.
Numbers only.

Illustrative cases are given below, each with its answer.
GCAAAGCAAUAUUACGGCUA
-0.279
UUCUAGCAAUAUUACGGCGU
-1.2
GGGAAGCAAUAUUACGGAUU
-0.737
GUGCAGCAAUAUUACGCUGG
-1.09
UAAUAGCAAUAUUACGGUGA
-2.39
AAUUAGCAAUAUUACGCCGG
-0.87
CAUGAGCAAUAUUACGCGAG
-1.47
AAACAGCAAUAUUACGUUGU
-2.73

Below is a list of sequences. For each, state its recorded self-splicing fitness (ln).
1. UUGGAGCAAUAUUACGGAUA
2. GGUAAGCAAUAUUACGAGUU
3. AAGUAGCAAUAUUACGCGCU
4. CUUCAGCAAUAUUACGGUCA
5. UCUGAGCAAUAUUACGCUGC
6. UAAGAGCAAUAUUACGAGUU
7. GCUGAGCAAUAUUACGUAAG
8. UUGUAGCAAUAUUACGAACA

-2.04
-0.413
-0.822
-3.2
-1.46
-2.87
-0.739
-0.256

Below is a list of sequences. For each, state its recorded self-splicing fitness (ln).
1. UUGAAGCAAUAUUACGGCCC
2. UGAGAGCAAUAUUACGGACA
3. CCCUAGCAAUAUUACGUCCU
4. GGCCAGCAAUAUUACGUUUU

1. -0.425
2. -0.674
3. -2.06
4. -1.22
